target: Methyl-CpG-binding domain protein 4 (Homo sapiens) (UniProt O95243); details: Compound Concentration 10.0 uM, Hit No;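 further: MBD4 activity read as fluorescence at 594 nm from cleavage and release of a quenched duplex DNA oligonucleotide, with APE1 coupled to incise the strand and raise turnover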
Sequence (O95243 whole entry, the tested form may be a part): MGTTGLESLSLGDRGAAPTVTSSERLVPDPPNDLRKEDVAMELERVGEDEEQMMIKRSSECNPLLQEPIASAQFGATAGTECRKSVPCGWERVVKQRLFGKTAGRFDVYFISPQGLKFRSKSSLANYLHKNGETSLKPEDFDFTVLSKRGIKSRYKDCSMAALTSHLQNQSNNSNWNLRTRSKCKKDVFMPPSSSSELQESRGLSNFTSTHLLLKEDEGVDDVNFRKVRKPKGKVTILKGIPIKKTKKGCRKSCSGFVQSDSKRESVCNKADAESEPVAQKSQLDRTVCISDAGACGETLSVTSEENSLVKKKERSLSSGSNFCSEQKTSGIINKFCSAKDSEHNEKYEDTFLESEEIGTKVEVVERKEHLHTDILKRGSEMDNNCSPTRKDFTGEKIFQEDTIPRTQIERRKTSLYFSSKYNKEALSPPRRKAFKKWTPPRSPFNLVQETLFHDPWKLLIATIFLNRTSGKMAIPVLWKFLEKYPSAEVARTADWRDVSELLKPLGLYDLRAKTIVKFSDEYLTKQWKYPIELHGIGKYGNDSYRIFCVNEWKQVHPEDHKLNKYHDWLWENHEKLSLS
Description: Inhibition of MBD4 by quantifying inhibition of MBD4-mediated cleavage and dissociation of quenched duplex DNA oligonucleotides, measured as fluorescence at 594 nm. To generate a functional strand incision and increase turn-over this assay is coupled to APE1.
Listed next: entries and their corresponding inhibition.
observationType: inhibition

[[record]]
molecule = "CNC(=O)COc1cc2cc(Nc3nc(N4C[C@H](C)C[C@H](C)C4)ncc3Cl)ccc2n(C)c1=O"
observationtype = "inhibition"
valuereported = "45.8%"

[[record]]
molecule = "CN[C@@H]1Cc2cccc3[nH]c(=O)n(c23)C1"
observationtype = "inhibition"
valuereported = "11.7%"

[[record]]
molecule = "COc1cc(Br)c(S(=O)(=O)Nc2ccc(C(F)(F)F)c(O[C@@H]3CCN(C)C3)c2)cc1OC"
observationtype = "inhibition"
valuereported = "-1.76%"

[[record]]
molecule = "CC[C@H](CO)Nc1nc(NCc2ccccc2)c2ncn(C(C)C)c2n1"
observationtype = "inhibition"
valuereported = "-1.52%"

[[record]]
molecule = "Nc1nc2cc(-c3cc(Cl)ccc3Oc3cc(F)c(S(=O)(=O)Nc4ncns4)cc3F)ccc2[nH]1"
observationtype = "inhibition"
valuereported = "38.8%"

[[record]]
molecule = "C[C@@H]1CN(Cc2ccc(F)cc2)CCN1C(=O)COc1ccc(Cl)cc1NC(N)=O"
observationtype = "inhibition"
valuereported = "-0.315%"

[[record]]
molecule = "CSc1ccc(C(=O)/C=C/c2cc(C)c(OC(C)(C)C(=O)O)c(C)c2)cc1"
observationtype = "inhibition"
valuereported = "77.3%"

[[record]]
molecule = "CC(C)(O)c1cn(-c2ccc(-c3cccc(S(C)(=O)=O)c3)cc2)c(C(C)(C)c2ccccc2Cl)n1"
observationtype = "inhibition"
valuereported = "15.3%"

[[record]]
molecule = "CC1(C)CCC(C)(C)c2cc(NC(=O)c3ccc(C(=O)O)cc3)ccc21"
observationtype = "inhibition"
valuereported = "58.9%"

[[record]]
molecule = "Cc1c(OCc2cccc(-c3ccc(C(=O)O)cc3)c2)cc2c(c1C)C(=O)C(C1CCCC1)C2 (configuration not stated)"
observationtype = "inhibition"
valuereported = "-8.74%"

[[record]]
molecule = "Cc1ccc(Cn2nc(C(=O)N[C@@H]3C(C)(C)[C@@H]4CC[C@@]3(C)C4)cc2-c2ccc(Cl)c(C)c2)cc1"
observationtype = "inhibition"
valuereported = "-2.75%"

[[record]]
molecule = "O=C(NCCS(=O)(=O)c1ccc(C(F)(F)F)cn1)c1ccc(Cl)cc1"
observationtype = "inhibition"
valuereported = "55.1%"


Origin of measurements: ChEMBL document CHEMBL5665443
